Can you tell me folding stability dG for the items I'm about to list?
B1: 6NMW (parent)
chain: QGDIVVALYPYDGIHPDDLSFKKGEKMKVLEEHGEWWKAKSLLTKKEGFIPSNYVAKLN

Variants of: B1
PROCEDURE SUMMARY: folding stability dG (cDNA display proteolysis); higher = more stable
STUDY CONDITIONS: PBS, room temperature
Don't forget the unit after the number, please.

# lookup: folding stability dG of V29S -0.702 kcal/mol

What do you have for F49Q ? 2.25 kcal/mol

H33N , same question. 3.62 kcal/mol

# iterate: E31K 2.67 kcal/mol

Next variant up: L30R 0.866 kcal/mol

Ok, now K40L 3.84 kcal/mol

Also check Y11E -0.944 kcal/mol

Try W37D next. 0.168 kcal/mol

Now consider S20D . 1.82 kcal/mol

Also check F21I 0.968 kcal/mol
